acetylcholinesterase (AChE) (Electrophorus electricus): reported pIC50 for various molecules.
Sequence (O42275 24-633): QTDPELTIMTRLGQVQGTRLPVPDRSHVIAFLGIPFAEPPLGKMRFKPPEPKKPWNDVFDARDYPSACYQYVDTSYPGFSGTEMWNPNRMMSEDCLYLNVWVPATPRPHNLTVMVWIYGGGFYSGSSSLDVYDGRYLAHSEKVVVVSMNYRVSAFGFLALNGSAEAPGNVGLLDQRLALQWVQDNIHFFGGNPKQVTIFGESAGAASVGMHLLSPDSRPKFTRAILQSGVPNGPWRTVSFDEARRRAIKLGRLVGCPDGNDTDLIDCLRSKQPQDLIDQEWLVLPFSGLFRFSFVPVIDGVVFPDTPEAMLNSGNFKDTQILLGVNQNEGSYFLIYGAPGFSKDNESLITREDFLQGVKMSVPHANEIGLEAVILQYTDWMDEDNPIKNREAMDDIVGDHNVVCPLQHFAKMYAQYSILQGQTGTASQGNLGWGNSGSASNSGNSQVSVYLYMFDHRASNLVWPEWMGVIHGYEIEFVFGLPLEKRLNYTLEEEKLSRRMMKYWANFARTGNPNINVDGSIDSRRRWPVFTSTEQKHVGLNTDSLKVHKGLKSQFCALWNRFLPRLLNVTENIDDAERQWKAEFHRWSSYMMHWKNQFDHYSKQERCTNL
// pIC50 is dimensionless: -log10 of concentration (M)

# count of solved cases: 4
* CCOc1cc(OCC)c2c(=O)cc(-c3ccc(OC)c(OCC)c3)oc2c1 | 4.12
* CCC(=O)Oc1cc2oc(-c3ccccc3)cc(=O)c2c(OC(=O)CC)c1OC(=O)CC | 4.18
* CCOc1cc(O)c2c(=O)cc(-c3ccc(OC)c(OCC)c3)oc2c1 | 3.89
* COc1ccc(-c2cc(=O)c3c(O)cc(OC(=O)c4ccccc4)cc3o2)cc1OC(=O)c1ccccc1 | 3.47

As a next step, examine the molecule that follows.
So what does the record say about pIC50 for O=c1cc(-c2ccccc2)oc2cc(O)c(O)c(O)c12 ?
4.43

Taken from paper PMC7570966.
